Tested on: ov-NNMT NCI-H82 cell
ASSAY_METHOD_TEXT: CellTiter-Glo cell viability, ov-NNMT NCI-H82 cell (NNMT overexpressed)
Type: cell-based, human
MEASUREMENT_CONTEXT: NCI-H82 overexpressing NNMT protein, intracellular ATP, read-out: inhibitory effect on OV-NNMT NCI-H82 (IC50)
pIC50: −log10 of the molar value.
# pIC50 per record follows
ATTRIBUTE_MEASURED: pIC50

INSERT INTO assay_data (compound, readout_number) VALUES
  ('COc1ccc2c(c1OC)C(C1CCCC1)N1CCc3cc4c(cc3C1=C2)OCO4 (centres unmarked) [AB36497]', 4.74),
  ('COc1ccc2c(c1OC)C(C1CCCC1)N1CCc3cc4c(cc3C1=C2)OCO4 (centres unmarked) [AB31900]', 5.31);
